targetDesc: HLA-DRB1*04:01 (Homo sapiens, UniProt P01903+P01911, A100K/A169T/F76Y/I96L/K127E/L162R/M171V/N62H/P40V/Q125Y/R42H/S133A/S149N/S66Y/V115G/V209L/W38E)
assayName: biochemical
pIC50: −log10 of the molar value. Peptide text beside a SMILES is read from it.
metric: pIC50

Record CC[C@H](C)[C@H](NC(=O)[C@H](CCCCN)NC(=O)[C@H](CC(C)C)NC(=O)[C@@H](NC(=O)[C@H](CO)NC(=O)[C@@H](N)CCSC)[C@@H](C)CC)C(=O)N[C@@H](Cc1c[nH]cn1)C(=O)N[C@@H](C)C(=O)N[C@@H](CCCNC(=N)N)C(=O)N[C@@H](CCC(=O)O)C(=O)N[C@H](C(=O)N[C@@H](Cc1ccccc1)C(=O)N[C@@H](CC(=O)O)C(=O)N[C@@H](CO)C(=O)N[C@@H](CCCNC(=N)N)C(=O)O)[C@@H](C)CC [peptide 1] (H-MSILKIHAREIFDSR-OH) . Reported pIC50: < 4.30
